# Log P per record follows
# testParameters: pH 2.7
Marks after values point to notes of the source that are not given here.

Answered cases to consult:
{"columns": ["compound", "reported"],
 "data": [
  ["CCOC(=O)C(C#N)=C(NC(C)C(C)C)c1cn(C)nc1C(F)(F)F (centres unmarked)", "3.64^[a]"],
  ["CCC(NC(=C(C#N)C(=O)OC)c1cccnc1Cl)C1CCCCC1 (centres unmarked)", "4.07^[a]"]
]}

INPUT: Data request, read-out Log P, for CCOC(=O)C(C#N)=C(NC(C)c1nc(C)cs1)c1sccc1Br (single isomer, unassigned)
OUTPUT: 3.44^[a]

INPUT: Repeat with CCOC(=O)C(C#N)=C(NC(C)c1nccs1)c1cnccc1Cl (racemic)
OUTPUT: 2.78^[a]

INPUT: Repeat with CCOC(=O)C(C#N)=C(NC(C)(C)C(=O)OC)c1sc(C)nc1C(F)(F)F
OUTPUT: 3.23^[a]

----------
# testParameters: pH 2.7
Marks after values point to notes of the source that are not given here.
measuredProperty: Log P

{"columns": ["compound", "reported"],
 "data": [
  ["CCCC(CC)NC(=C(C#N)C(=O)OCC)c1cn(C)nc1C(F)F (centres unmarked)", "3.51^[a]"]
]}

INPUT: Data request, read-out Log P, for CCOC(=O)C(C#N)=C(NC(C)Cc1nccs1)c1cccnc1Cl (mixture of isomers)
OUTPUT: 2.4^[a]

INPUT: Repeat with CCOC(=O)C(C#N)=C(NC(C)c1ccc(C)cc1)c1sc(C)nc1C(F)(F)F (mixture of isomers)
OUTPUT: 4.36^[a]

INPUT: Repeat with CCOC(=O)C(C#N)=C(NC(C)c1ccccn1)c1ccnc2ccccc12 (racemic)
OUTPUT: 2.5^[a]

INPUT: Repeat with CCOC(=O)/C(C#N)=C(\NCc1nccs1)c1sccc1Cl
OUTPUT: 2.63^[a]

INPUT: Repeat with CCOC(=O)C(C#N)=C(NC(C)(C)c1ccc(OC)cc1)c1cn(C)nc1C(F)F
OUTPUT: 3.35^[a]

INPUT: Repeat with CCNC(=O)C(C#N)=C(NC(C)c1nccs1)c1cnn(C)c1C(F)F (centres unmarked)
OUTPUT: 2.11^[a]

INPUT: Repeat with COC(=O)C(C#N)=C(NCc1nccs1)c1cn(C)nc1C(F)F
OUTPUT: 1.72^[a]

INPUT: Repeat with CCOC(=O)C(C#N)=C(NC(C)CN1CCCCC1)c1cccnc1Cl (racemic)
OUTPUT: 1.2^[a]

INPUT: Repeat with CCOC(=O)C(C#N)=C(NC(C)C1CC1)c1cnccc1C(F)(F)F (racemic)
OUTPUT: 3.2^[a]

INPUT: Repeat with CCOC(=O)C(C#N)=C(Nc1cccnc1O)c1cccnc1Cl
OUTPUT: 1.9^[a]

INPUT: Repeat with CCOC(=O)C(C#N)=C(Nc1ccccc1Cl)c1cn(C)nc1C(F)F
OUTPUT: 3.15^[a]

INPUT: Repeat with CCOC(=O)C(C#N)=C(NC(C)C1CC2CCC1C2)c1cn(C)nc1C(F)F (centres unmarked)
OUTPUT: 4.03^[a]

INPUT: Repeat with CCOC(=O)C(C#N)=C(NCc1nc(C)cs1)c1ccsc1Br
OUTPUT: 2.94^[a]

INPUT: Repeat with CCOC(=O)C(C#N)=C(NC1(C(=O)OCC)CCC1)c1cccnc1Cl
OUTPUT: 3.17^[a]

INPUT: Repeat with CCOC(=O)C(C#N)=C(NC(C)Cc1c[nH]c2ccccc12)c1cn(C)nc1C(F)(F)F (centres unmarked)
OUTPUT: 3.73^[a]

INPUT: Repeat with CCOC(=O)C(C#N)=C(NC(C)(C)C=C(Cl)Cl)c1cccnc1Cl
OUTPUT: 3.55^[a]
